target: T1, full-length VDCC β2a mutant M246 changed to alanine (rabbit, UniProt P54288-2 1-606); test: fluorescence polarization
T1 construct: mature
T1 sequence (P54288 other isoform, or with tags, fused parts or gaps mutant limits assumed): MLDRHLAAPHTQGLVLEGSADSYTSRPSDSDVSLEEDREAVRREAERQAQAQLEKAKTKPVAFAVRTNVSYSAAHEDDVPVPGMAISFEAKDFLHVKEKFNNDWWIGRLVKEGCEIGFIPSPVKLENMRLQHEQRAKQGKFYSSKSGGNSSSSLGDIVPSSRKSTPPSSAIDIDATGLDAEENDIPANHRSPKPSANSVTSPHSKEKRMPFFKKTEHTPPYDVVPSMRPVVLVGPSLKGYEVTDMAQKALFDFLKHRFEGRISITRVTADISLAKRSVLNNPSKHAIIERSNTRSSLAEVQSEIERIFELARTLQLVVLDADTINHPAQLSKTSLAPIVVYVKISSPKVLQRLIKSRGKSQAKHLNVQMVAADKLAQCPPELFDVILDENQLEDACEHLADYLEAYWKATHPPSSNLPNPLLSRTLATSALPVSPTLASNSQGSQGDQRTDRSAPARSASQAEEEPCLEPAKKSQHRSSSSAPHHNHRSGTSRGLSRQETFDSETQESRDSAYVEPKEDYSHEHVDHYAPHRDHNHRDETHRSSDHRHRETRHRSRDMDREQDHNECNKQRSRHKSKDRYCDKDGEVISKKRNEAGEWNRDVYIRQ
pKd: −log10 of the molar value. fluorescein = fluorescein label
recorded metric: pKd

{"binder": "fluorescein-GGQQLEEDLRGYNSWITQGE-OH (also called labeled peptide; WT) [fluorescein-labeled AID peptide, fluorescein-GGQQLEEDLRGYNSWITQGE-COOH]", "result value": 5.77}
